Assignment: determine reported Percent Effect for the given molecules.
- System: Leishmania donovani
- test: Leishmania intramacrophage assay
- Assay type: functional, organism-based
- Design: scale not given: in the data most compounds retested in dose-response had high values
- condition.set: 30.3 µM; […]
Out of some 69,000 compounds screened, about 1,000 (1.4%) showed an effect of 50% or more. This excerpt belongs to a sample that is enriched for strong results.
Answers are plain numbers, in %.

Fc1ccccc1NCc1nc2n(n1)CCCCC2; -12.91

List the reported Percent Effect of each molecule below.
1. CNC(=O)c1cc(OC)c(OC)cc1N(C)S(C)(=O)=O
2. CCC(C)N(Cc1cccnc1)Cc1ccc2c(c1)OCCO2 (configuration not stated)
3. NC(=O)CCSc1ccccc1NCc1ccc(Cl)s1
4. O=C(C1CCOC1)N1C[C@H]2CN(c3ccccc3)C(=O)[C@H]2C1 (some centres not stated)

1: -11.85; 2: 27.15; 3: 57.16; 4: 6.072

Respectfully, I request Percent Effect for each entry included below.
1. Cc1ccc(NCCCNC(=O)C2CCCN(Cc3ccco3)C2)nc1 (configuration not stated)
2. CCCN1CCC(NCc2ccncc2)CC1
3. OC(CNCCn1cccn1)COc1ccc(Br)cc1 (configuration not stated)
4. COc1ccc2nnc(C(=O)NC3CCCC3)nc2c1
5. CCOC(C)c1nc(CN2CCN(Cc3cccnc3)CC2)cs1 (configuration not stated)
6. Cc1cc(C)cc(C(=O)NCc2ncnn2C)c1
7. O=C1CC(c2cccnc2)c2c(c(C(=O)O)cn2-c2cccc(F)c2)N1 (configuration not stated)

[-17.24, -7.602, 25.57, 8.289, 14.45, -3.252, 52.29]

For each of the items listed, what is its Percent Effect?
1. CC1(C)OC(=O)N(CC(=O)N2CCC(c3ccccc3Cl)C2)C1=O (configuration not stated)
2. CC(C)N(CCO)C(=O)C1CCC(=O)N(CCc2cccc(F)c2)C1 (configuration not stated)
3. Oc1cccc(CNC2CCN(CCc3ccncc3)CC2)c1
4. COCC1CN(CC2CC2)Cc2nn(CC3CC3)cc21.O=C(O)C(F)(F)F (configuration not stated)
5. Cc1ncsc1CN(Cc1ccccc1)Cc1ncc[nH]1
6. COc1ccc(C(=O)NS(=O)(=O)c2cc(Cl)sc2Cl)cc1OC(F)F

16.86
21.22
7.34
8.658
-37.36
16.5

====

I'd be grateful if you could share measured Percent Effect for these entries.
- Test system: Leishmania donovani
- test: Leishmania intramacrophage assay
- Assay type: functional, organism-based
- Set-up: scale not given: in the data most compounds retested in dose-response had high values
- condition.set: 30.3 µM; […]
In all, about 69,000 compounds went through this assay and about 1,000 (1.4%) showed an effect of 50% or more. Only a selection was taken, and strong results are over-represented in it overall.
Answers are plain numbers, in %.

For orientation, consider the following solved cases.
COCc1nc(C(=O)OCC2CCN(c3ccccc3)C2)cs1 (centres undefined); -78.1
CC(C)N1CC2(CCC1=O)CCN(c1ccnc3ccccc13)CC2; 16.36
Cc1cc(Cc2ccccc2)cc(C2CCCNC2)n1 (centres undefined); 19.14
COc1ccc(N(c2ccccc2)c2ccc(C(=O)O)s2)cc1; 6.692
CCCSc1ccccc1NC(=O)N1CCN(C(=O)c2ccc[nH]2)CC1; 22.55
Cc1cc(Cc2ccc(F)cc2)cc(C2CCCNC2)n1 (centres undefined); 22.51
Cc1cccc(-c2nc(C)nn2CN2CCC3(CC2)OCCO3)c1; -6.145
O=C(OCC1CCCN(C(=O)c2ccccc2)C1)c1cscn1 (centres undefined); -48.09
Cc1ccc(C(C(=O)O)N2CCCN(Cc3ccccn3)CC2)c(F)c1 (centres undefined); 23.66
CCc1csc(C2CCCN(C(=O)c3ccc4c(c3)OCO4)C2)n1 (centres undefined); -18.73

Return reported Percent Effect values for all items listed beneath this line.
1. Cc1cc(F)c(C(C(=O)O)N2CCN(Cc3ccccn3)CC2)cc1Cl (centres undefined)
2. CC[C@@]1(O)CCN(C(=O)CCSCc2ccc(F)cc2)C[C@H]1O
3. COCC1CC2(CCN(C(=O)c3ccc(C)nc3)CC2)CO1.O=C(O)C(F)(F)F (centres undefined)
4. CC(=O)N1CCCC(c2ccc(Cc3ccccc3)cn2)C1 (centres undefined)
5. CN(C)CC1CN(c2ncnc3ccsc23)CCO1 (centres undefined)
6. CC(C)N1CC2(CCCN(c3ccccn3)C2)CCC1=O (centres undefined)

5.04
-8.433
25.55
-26.06
16.39
24.82

Please give Percent Effect, item by item, for the list that follows.
1. c1nc(N2CCOC(Cn3cncn3)C2)c2sccc2n1 (centres undefined)
2. COC(C)(C)CC(C)NCc1cc(-c2ccco2)on1 (centres undefined)
3. O=C(Nc1nncs1)c1ccc(O)nc1

1: 23.8; 2: -19.81; 3: 16.66

Answer for every listed entry: what is its Percent Effect? The entries follow.
1. O=C(C1CCCCC1)N1CCCC([C@@H]2C[C@H](C(F)F)n3ncnc3N2)C1 (some centres undefined)
2. O=C(O)C(c1ccc(Cl)c(F)c1)N1CCN(Cc2ccccn2)CC1 (centres undefined)
3. Cc1cc(Cc2ccccc2C)cc(C2CCCNC2)n1 (centres undefined)
4. Cc1cc(Cc2cccc(C(F)(F)F)c2)cc(C2CCCNC2)n1 (centres undefined)
5. c1ccc2c(N3CCOC(Cn4cccn4)C3)ncnc2c1 (centres undefined)

1: 0.241; 2: 61.2; 3: 39.73; 4: 91.42; 5: -0.8022
